# Test system: MARIMO;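 further: after 48 h exposure read by CellTiter-Glo luminescence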
# assay.notes: cell viability relative to vehicle control; higher = less cytotoxic
# condition.summary: 10 µM; SRSF2 genotype: SRSF2 wt/wt
Counter-ions that a name gives are not always drawn.
measurement.type: cell viability (%)

- Cc1ccc(NC(=O)c2cccc(C(C)(C)C#N)c2)cc1Nc1ccc2ncn(C)c(=O)c2c1: 40.9
- CC[C@H](C)C(=O)O[C@H]1C[C@H](O)C=C2C=C[C@H](C)[C@H](CC[C@@H](O)C[C@@H](O)CC(=O)O)[C@H]21 [Pravastatin sodium]: 103
- NC1=N[C@@](c2cccc(-c3cncnc3)c2)(c2ccnc(C(F)F)c2)c2cccc(F)c21: 95.2
- NN1CC(=O)NC1=O [1-Aminohydantoin Hydrochloride]: 106
- COc1ccc(CCNCC(O)COc2cccc(C)c2)cc1OC (configuration not stated) [Bevantolol hydrochloride]: 93.4
- O=C(O)C(=O)O [Oxalic acid]: 94.5
- C[C@@H](CC[C@@]1(O)O[C@H]2C[C@H]3[C@@H]4CC[C@@H]5C[C@@H](O[C@@H]6O[C@H](CO)[C@H](O)[C@H](O)[C@H]6O[C@@H]6O[C@H](CO)[C@@H](O)[C@H](O)[C@H]6O)CC[C@]5(C)[C@H]4CC[C@]3(C)[C@H]2[C@@H]1C)CO[C@@H]1O[C@H](CO)[C@@H](O)[C@H](O)[C@H]1O [Timosaponin BII]: 107
- OC[C@@H](O)CN1CCN(c2ccccc2)CC1 [Levodropropizine]: 96.5
- CN(C)C(=O)C(CCN1CCC(O)(c2ccc(Cl)cc2)CC1)(c1ccccc1)c1ccccc1 [Loperamide hydrochloride]: 61.6
- O=c1cc(N2CCOCC2)oc2c(-c3ccc4c(c3)OCCO4)csc12: 30.9
- c1cncc(CN2CCC(n3ncc4c(N5CCOCC5)nc(-c5ccc6[nH]ccc6c5)nc43)CC2)c1: 6.42
- Cn1cc(-c2[nH]c3cc(NC(=O)[C@H](N)C4CCCCC4)cc4c3c2C=NNC4=O)cn1: 26.9
- CNC(=O)[C@H](Cc1ccccc1)NC(=O)[C@H](CC(C)C)[C@H](CSc1cccs1)C(=O)NO [Batimastat (BB-94)]: 96.8
- Nc1ccc(O)c(C(=O)O)c1 [Mesalamine (Lialda)]: 94.7
- C[C@H](CS)C(=O)N1CCC[C@H]1C(=O)O [Captopril (Capoten)]: 106
- O=C(O)c1ccc(Br)c(O)c1 [4-Bromo-3-hydroxybenzoic acid]: 110
- CC(C)=CCC/C(C)=C/C=O [Citral]: 98.9
